# Tgt: Maltase
# Experimental details: α-glucosidase inhibition, rat small intestinal brush border membrane, maltose substrate
# Format: biochemical
# Test settings: rat small intestine brush border membrane; maltose (74 mM); 0.1M maleate buffer (pH6.0); 37° C. for 30 minutes
Record form. Attribute: α-glucosidase (IC50) Maltase. Fill in for each entry.
Response body: numeric value in µg/mL, unit text excluded.

Prompt: What does the data say about its α-glucosidase (IC50) Maltase? Entry: OCC(OCc1ccccc1Cl)C(O)C[S+]1CC(O)C(O)C1CO (centres unmarked)
Completion: 0.31

Prompt: So what's the measured α-glucosidase (IC50) Maltase for this one? O=[N+]([O-])c1ccc(COC(CO)C(O)C[S+]2CC(O)C(O)C2CO)cc1 (centres unmarked)
Completion: 0.68

Prompt: Please give the measured α-glucosidase (IC50) Maltase for this compound: OCC(OCc1ccc(C(F)(F)F)cc1)C(O)C[S+]1CC(O)C(O)C1CO (centres unmarked)
Completion: 0.98

Prompt: Please look up its α-glucosidase (IC50) Maltase: OCc1ccc(COC(CO)C(O)C[S+]2CC(O)C(O)C2CO)cc1 (centres unmarked)
Completion: 1

Prompt: What α-glucosidase (IC50) Maltase value was documented for this compound, OCC(OCc1cccc(Cl)c1)C(O)C[S+]1CC(O)C(O)C1CO (centres unmarked) ?
Completion: 0.53

----------
Record form. Attribute: α-glucosidase (IC50) Maltase. Fill in for each entry.
# Tgt: Maltase
# Experimental details: α-glucosidase inhibition, rat small intestinal brush border membrane, maltose substrate
# Type: biochemical
# Test settings: rat small intestine brush border membrane; maltose (74 mM); 0.1M maleate buffer (pH6.0); 37° C. for 30 minutes
Report the figure in µg/mL without appending any unit label.

Prompt: Quick check: α-glucosidase (IC50) Maltase on Maltase, item CCCCCOC(CO)C(O)C[S+]1CC(O)C(O)C1CO (stereo not drawn) ?
Completion: 1.52

Prompt: What is its α-glucosidase (IC50) Maltase for Maltase? Entry: CCCCCCCOC(CO)C(O)C[S+]1CC(O)C(O)C1CO (stereo not drawn)
Completion: 0.8

Prompt: # query: α-glucosidase (IC50) Maltase | item Cc1cccc(COC(CO)C(O)C[S+]2CC(O)C(O)C2CO)c1 (stereo not drawn) | system: Maltase
Completion: 0.84

Prompt: Reported α-glucosidase (IC50) Maltase for Maltase, given CC(C)(C)COC(CO)C(O)C[S+]1CC(O)C(O)C1CO (stereo not drawn) ?
Completion: 0.3

Prompt: Observed α-glucosidase (IC50) Maltase on Maltase for CCCCCCCCCCCCCOC(CO)C(O)C[S+]1CC(O)C(O)C1CO (stereo not drawn) , please.
Completion: 1.04

Prompt: Request body: readout α-glucosidase (IC50) Maltase, system Maltase, query Cc1ccccc1COC(CO)C(O)C[S+]1CC(O)C(O)C1CO (stereo not drawn) . Return the value.
Completion: 0.66

Prompt: Reported α-glucosidase (IC50) Maltase for Maltase, given OCC(OCc1ccccc1)C(O)C[S+]1CC(O)C(O)C1CO (stereo not drawn) ?
Completion: 0.58

Prompt: Query the reported α-glucosidase (IC50) Maltase for Maltase; item: COC(CO)C(O)C[S+]1CC(O)C(O)C1CO (stereo not drawn)
Completion: 5.3

Prompt: Param readout= α-glucosidase (IC50) Maltase; system= Maltase; entry= Cc1ccc(COC(CO)C(O)C[S+]2CC(O)C(O)C2CO)cc1 (stereo not drawn) ; returns value.
Completion: 0.86
